# Tested target: T1, hLTBP3-proTGFβ1 (human, UniProt Q9NS15 44-1303; P01137 30-390, limits assumed)
# T1 construct: LLC as m1; Same id used for the cell-made complex in reporter assays; also called human LTBP3-proTGFβ1 complex; LTBP3-ProTGFb1
# T1 sequence (Q9NS15 44-1303 limits assumed, chain 1 of 2): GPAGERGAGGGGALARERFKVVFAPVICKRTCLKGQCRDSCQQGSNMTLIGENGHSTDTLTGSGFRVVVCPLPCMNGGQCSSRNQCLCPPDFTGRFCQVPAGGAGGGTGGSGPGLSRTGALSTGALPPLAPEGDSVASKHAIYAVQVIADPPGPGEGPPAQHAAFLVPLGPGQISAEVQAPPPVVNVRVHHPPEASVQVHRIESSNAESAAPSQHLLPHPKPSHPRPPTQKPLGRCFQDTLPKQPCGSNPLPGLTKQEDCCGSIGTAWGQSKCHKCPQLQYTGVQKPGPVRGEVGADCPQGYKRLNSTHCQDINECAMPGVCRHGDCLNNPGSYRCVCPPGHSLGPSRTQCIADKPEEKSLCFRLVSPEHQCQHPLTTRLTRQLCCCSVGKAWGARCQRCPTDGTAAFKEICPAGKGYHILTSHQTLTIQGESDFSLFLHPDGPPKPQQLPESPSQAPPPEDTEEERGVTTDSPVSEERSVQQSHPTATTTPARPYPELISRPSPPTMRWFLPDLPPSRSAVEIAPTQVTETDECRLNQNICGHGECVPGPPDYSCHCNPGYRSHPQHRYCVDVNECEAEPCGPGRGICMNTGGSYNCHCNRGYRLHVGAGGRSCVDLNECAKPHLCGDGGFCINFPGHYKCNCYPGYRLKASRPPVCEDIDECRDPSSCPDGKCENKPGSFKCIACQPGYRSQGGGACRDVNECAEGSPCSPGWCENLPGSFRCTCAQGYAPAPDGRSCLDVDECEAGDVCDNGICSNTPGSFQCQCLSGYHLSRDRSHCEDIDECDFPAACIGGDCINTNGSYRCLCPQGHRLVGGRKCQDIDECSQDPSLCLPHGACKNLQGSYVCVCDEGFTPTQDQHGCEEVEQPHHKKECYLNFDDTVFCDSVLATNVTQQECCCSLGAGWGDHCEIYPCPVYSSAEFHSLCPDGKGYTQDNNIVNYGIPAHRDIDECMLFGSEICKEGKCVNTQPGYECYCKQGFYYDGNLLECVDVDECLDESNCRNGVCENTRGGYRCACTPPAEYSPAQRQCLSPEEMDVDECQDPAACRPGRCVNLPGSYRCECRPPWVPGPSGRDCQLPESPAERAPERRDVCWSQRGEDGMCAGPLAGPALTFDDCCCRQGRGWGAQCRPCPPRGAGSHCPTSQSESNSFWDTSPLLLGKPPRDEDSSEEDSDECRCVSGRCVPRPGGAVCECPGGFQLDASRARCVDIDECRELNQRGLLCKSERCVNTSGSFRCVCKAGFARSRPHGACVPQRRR
# T1 sequence (P01137 30-390 limits assumed, chain 2 of 2): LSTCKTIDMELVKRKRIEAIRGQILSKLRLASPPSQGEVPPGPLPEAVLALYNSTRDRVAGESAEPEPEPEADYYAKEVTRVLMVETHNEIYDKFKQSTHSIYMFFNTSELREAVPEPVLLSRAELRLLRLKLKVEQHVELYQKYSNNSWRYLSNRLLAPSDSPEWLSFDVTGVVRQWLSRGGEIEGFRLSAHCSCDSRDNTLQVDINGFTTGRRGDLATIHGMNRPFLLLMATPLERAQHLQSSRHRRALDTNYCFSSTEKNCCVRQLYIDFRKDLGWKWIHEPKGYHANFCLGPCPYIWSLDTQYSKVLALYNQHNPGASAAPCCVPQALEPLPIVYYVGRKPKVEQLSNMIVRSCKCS
# Protocol details: BLI (Octet)
pKd: −log10 of the molar value.
# Lookup of reported pKd keyed by entry
Measured parameter: pKd

Ab31 (antibody, V domains shown) VH: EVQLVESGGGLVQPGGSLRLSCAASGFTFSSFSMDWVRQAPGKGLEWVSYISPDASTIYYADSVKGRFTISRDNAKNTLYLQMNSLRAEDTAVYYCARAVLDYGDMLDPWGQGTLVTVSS VL: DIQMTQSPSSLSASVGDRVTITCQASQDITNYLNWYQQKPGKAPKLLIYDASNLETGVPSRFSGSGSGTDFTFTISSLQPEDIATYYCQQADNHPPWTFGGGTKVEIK | 9.74
Ab24 (antibody, V domains shown) VH: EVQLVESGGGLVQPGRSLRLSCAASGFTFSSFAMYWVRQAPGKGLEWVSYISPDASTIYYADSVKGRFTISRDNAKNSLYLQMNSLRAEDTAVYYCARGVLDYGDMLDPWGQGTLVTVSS VL: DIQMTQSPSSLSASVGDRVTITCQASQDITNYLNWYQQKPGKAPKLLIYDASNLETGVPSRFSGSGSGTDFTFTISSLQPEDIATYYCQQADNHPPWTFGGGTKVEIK | 9.70
Ab30 (antibody, V domains shown) VH: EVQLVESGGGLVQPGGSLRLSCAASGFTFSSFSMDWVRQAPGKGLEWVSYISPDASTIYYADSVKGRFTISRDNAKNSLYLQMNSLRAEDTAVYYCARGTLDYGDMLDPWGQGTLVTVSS VL: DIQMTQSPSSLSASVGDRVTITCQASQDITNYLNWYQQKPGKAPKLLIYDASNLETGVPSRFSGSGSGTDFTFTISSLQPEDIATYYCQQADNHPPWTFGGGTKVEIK | 9.58
Ab22 (antibody, V domains shown) VH: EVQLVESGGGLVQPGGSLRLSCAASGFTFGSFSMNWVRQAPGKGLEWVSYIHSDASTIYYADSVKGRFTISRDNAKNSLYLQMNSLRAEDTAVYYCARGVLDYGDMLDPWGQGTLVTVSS VL: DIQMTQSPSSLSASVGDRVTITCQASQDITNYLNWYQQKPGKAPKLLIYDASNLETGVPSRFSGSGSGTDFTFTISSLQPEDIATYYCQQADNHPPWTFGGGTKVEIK | 9.48
Ab26 (antibody, V domains shown) VH: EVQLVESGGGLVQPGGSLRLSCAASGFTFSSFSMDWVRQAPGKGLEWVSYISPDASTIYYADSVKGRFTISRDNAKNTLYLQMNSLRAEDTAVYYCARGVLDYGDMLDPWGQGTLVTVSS VL: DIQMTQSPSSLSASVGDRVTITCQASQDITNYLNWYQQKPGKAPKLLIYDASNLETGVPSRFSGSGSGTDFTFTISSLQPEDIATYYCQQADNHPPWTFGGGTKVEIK | 9.76
Ab33 (antibody, V domains shown) VH: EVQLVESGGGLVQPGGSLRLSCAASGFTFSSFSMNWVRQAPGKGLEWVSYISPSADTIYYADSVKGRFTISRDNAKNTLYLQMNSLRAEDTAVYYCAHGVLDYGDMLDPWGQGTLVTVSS VL: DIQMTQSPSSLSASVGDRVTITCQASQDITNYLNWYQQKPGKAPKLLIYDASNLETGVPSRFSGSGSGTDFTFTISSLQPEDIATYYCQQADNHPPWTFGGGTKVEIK | 9.95
Ab32 (antibody, V domains shown) VH: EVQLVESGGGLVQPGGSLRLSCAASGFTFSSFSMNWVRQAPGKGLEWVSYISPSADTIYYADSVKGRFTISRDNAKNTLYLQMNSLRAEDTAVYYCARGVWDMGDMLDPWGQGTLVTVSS VL: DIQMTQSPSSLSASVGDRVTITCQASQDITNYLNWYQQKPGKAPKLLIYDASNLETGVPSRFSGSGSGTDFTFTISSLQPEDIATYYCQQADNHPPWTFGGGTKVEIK | 9.67
Ab29 (antibody, V domains shown) VH: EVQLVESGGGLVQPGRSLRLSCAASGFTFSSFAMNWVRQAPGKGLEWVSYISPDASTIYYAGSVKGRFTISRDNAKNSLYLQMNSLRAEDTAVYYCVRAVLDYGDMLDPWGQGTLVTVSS VL: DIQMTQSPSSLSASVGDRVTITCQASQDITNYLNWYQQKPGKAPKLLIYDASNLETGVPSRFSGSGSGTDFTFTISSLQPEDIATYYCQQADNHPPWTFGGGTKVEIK | 9.92
Ab28 (antibody, V domains shown) VH: EVQLVESGGGLVQPGGSLRLSCAASGFTFSSFSMDWVRQAPGKGLEWVSYISPDASTIYYADSVKGRFTISRDNAKNSLYLQMNSLRAEDTAVYYCVRGVLDYGDMLDPWGQGTLVTVSS VL: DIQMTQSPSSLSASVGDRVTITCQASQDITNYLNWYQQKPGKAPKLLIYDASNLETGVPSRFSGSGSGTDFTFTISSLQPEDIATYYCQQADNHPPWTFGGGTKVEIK | 9.50
Ab21 (antibody, V domains shown) VH: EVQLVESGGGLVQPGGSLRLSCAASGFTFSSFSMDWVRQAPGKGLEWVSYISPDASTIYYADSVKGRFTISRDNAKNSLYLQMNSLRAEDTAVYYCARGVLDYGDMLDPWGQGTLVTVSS VL: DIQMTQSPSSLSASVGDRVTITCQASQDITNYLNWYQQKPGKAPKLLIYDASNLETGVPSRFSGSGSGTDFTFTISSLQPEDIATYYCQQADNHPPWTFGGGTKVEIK | 9.57
